assay.info: GI Exposure PK in Mice
Assay type: in vivo
experimental.setup: mouse, portal vein plasma (pre-hepatic); Portal plasma; male BalbC mice, oral dose of 5 mg/kg
value.type: Tmax (min)
Give bare numbers, in min.

Prompt: Query (compound): `CNC(=O)c1coc(-c2cnc3[nH]ccc3c2N[C@@H]2C[C@H](C)CN(C(=O)CC#N)C2)n1` ; field requested: Tmax
Response: 30

====

tested.on: JAK3 (a.a. 781-1124) (Homo sapiens (Human), UniProt P52333)
Sequence (P52333 781-1124): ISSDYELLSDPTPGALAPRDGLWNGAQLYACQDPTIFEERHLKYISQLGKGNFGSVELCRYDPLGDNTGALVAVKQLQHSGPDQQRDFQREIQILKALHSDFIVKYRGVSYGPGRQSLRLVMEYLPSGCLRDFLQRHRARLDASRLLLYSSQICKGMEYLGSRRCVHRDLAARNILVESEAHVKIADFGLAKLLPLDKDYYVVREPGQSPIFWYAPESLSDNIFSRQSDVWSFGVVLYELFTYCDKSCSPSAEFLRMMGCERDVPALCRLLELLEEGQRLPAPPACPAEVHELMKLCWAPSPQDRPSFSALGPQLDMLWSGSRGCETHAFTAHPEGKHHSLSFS
pIC50: −log10 of the molar value. Where a name gives a salt, the structure may show the parent alone.
value.type: pIC50

Sample records with pIC50:
> print(dat)
                                   molecule  value.type      reported
1  N#CCC(=O)N1CCC[C@@H](Nc2c(-c3ncco3)cnc3[nH]ccc23)C1       pIC50        ≥ 8.00
2  N#CCC(=O)N1CCC[C@@H](Nc2c(-c3cccc(N)n3)cnc3[nH]ccc23)C1       pIC50  7.00 to 8.00
3  N#CCC(=O)N1CCC[C@@H](Nc2c(-c3ccn(C(F)F)n3)cnc3[nH]ccc23)C1       pIC50        ≥ 8.00
4  O[C@H]1CC[C@@H](Nc2c(-c3ccccn3)cnc3[nH]ccc23)C1       pIC50  7.00 to 8.00

Hello, I would appreciate it if you could give pIC50 for each entry below.
1. N#CCC(=O)N1CCC[C@@H](Nc2c(-c3ccncn3)cnc3[nH]ccc23)C1
2. CC(=O)c1cnc(-c2cnc3[nH]ccc3c2N[C@@H]2CCCN(C(=O)CC#N)C2)o1
3. CNCCOc1cccc(-c2cnc3[nH]ccc3c2N[C@@H]2CCCN(C(=O)CC#N)C2)n1 [Example 58, hydrochloride]
4. CS(=O)(=O)c1cnc(-c2cnc3[nH]ccc3c2N[C@@H]2CCCN(C(=O)CC#N)C2)s1

Response:
["≥ 8.00", "≥ 8.00", "7.00 to 8.00", "≥ 8.00"]

====

tested.on: JAK3 (a.a. 781-1124) (Homo sapiens (Human), UniProt P52333)
pIC50: −log10 of the molar value.
value.type: pIC50

Sample records with pIC50:
> print(dat)
                                   compound  value.type      reported
1  C[C@H]1C[C@@H](Nc2c(-c3ncco3)cnc3[nH]ccc23)CN(C(=O)CC#N)C1 (single isomer, unassigned)       pIC50        ≥ 8.00
2  N#CCC(=O)N1CCC[C@@H](Nc2c(C#N)cnc3[nH]ccc23)C1       pIC50  7.00 to 8.00
3  Cc1ncc(-c2cnc3[nH]ccc3c2N[C@@H]2CCCN(C(=O)CC#N)C2)s1       pIC50  7.00 to 8.00
4  Cc1nc(-c2cnc3[nH]ccc3c2N[C@@H]2CCCN(C(=O)CC#N)C2)no1       pIC50  7.00 to 8.00
5  C[C@H]1C[C@@H](Nc2c(-c3ccn(C(F)F)n3)cnc3[nH]ccc23)CN(C(=O)CC#N)C1       pIC50        ≥ 8.00

Hello, I would appreciate it if you could give pIC50 for each entry below.
1. C[C@@H]1C[C@H](Nc2c(-c3ncco3)cnc3[nH]ccc23)CN(C(=O)CC#N)C1 (single isomer, unassigned)
2. CSc1nccc(-c2cnc3[nH]ccc3c2N[C@@H]2CCCN(C(=O)CC#N)C2)n1
3. CNC(=O)c1ccnc(-c2cnc3[nH]ccc3c2N[C@@H]2CCCN(C(=O)CC#N)C2)c1
4. CNC(=O)c1csc(-c2cnc3[nH]ccc3c2N[C@@H]2CCCN(C(=O)CC#N)C2)n1
5. Cc1noc(-c2cnc3[nH]ccc3c2N[C@@H]2CCCN(C(=O)CC#N)C2)n1
6. Cc1cnc(-c2cnc3[nH]ccc3c2N[C@@H]2CCCN(CCC#N)C2)o1
7. N#CCC(=O)N1CCC[C@@H](Nc2c(-c3ncon3)cnc3[nH]ccc23)C1
8. CNC(=O)c1cnc(-c2cnc3[nH]ccc3c2N[C@@H]2CCCN(C(=O)CC#N)C2)o1

Response:
1. 7.00 to 8.00
2. ≥ 8.00
3. 7.00 to 8.00
4. ≥ 8.00
5. ≥ 8.00
6. ≥ 8.00
7. 7.00 to 8.00
8. ≥ 8.00

Hello, I would appreciate it if you could give pIC50 for each entry below.
1. Cc1ccc(-c2cnc3[nH]ccc3c2N[C@@H]2CCCN(C(=O)CC#N)C2)nc1
2. CS(=O)(=O)c1cnc(-c2cnc3[nH]ccc3c2N[C@@H]2CCCN(CCC#N)C2)s1
3. N#CCC(=O)N1CCC[C@@H](Nc2c(-c3ncccn3)cnc3[nH]ccc23)C1

Response:
1. 7.00 to 8.00
2. 7.00 to 8.00
3. 7.00 to 8.00
